Below is a list of entries, each paired with its recorded Kd value.
# Assayed System: T1, human BCMA-His protein (ACRO, Cat#: BCA-H522y) (human, UniProt Q02223 1-54)
# T1 construct: Bought protein; also called Human BCMA protein; huBCMA-his
# T1 sequence: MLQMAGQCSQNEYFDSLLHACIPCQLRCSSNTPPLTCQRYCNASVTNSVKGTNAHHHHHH
# Experiment Summary: BLI (ForteBio Octet RED96e), antibody on AHC sensor, 100 nM human BCMA-His, 1:1 model

[
  {
    "Binder": "269B094 (a fully human monoclonal antibody targeting BCMA) (antibody, V domains shown, also called control antibody; control sample) VH: DVQLVESGGGLVQPGGSLRLSCAASGRTFSSIVMGWFRQAPGKEREFVGAIMWNDGITYLQDSVKGRFTIFRDNAKNTVYLQMNSLKLEDTAVYYCAASKGRYSEYEYWGQGTQVTVSS",
    "Kd": "1510 pM"
  },
  {
    "Binder": "huBH56-3-IgG (antibody, V domains shown, Humanized VHH-Fc heavy-chain antibody; Fc with L234A, L235A, D265A, P329A) VH: EVQVVESGGGLIQPGGSLRLSCAASGFTFAPSAMSWARQPPGKEVEWVSGIYGDGRTTYADSVKGRFTISRDNSKNTVYLQMNSLRAEDTAVYYCVVGIRLLSESWAQALRGQGTQVTVSS",
    "Kd": "< 1 pM"
  },
  {
    "Binder": "HA68-IgG (antibody, V domains shown, also called anti-human BCMA chimeric antibody) VH: QVQLVETGGGLVQPGGSLRLSCAASGFTFSPSAMNWARQAPGKGLEWVAGIYGDGKAEYADSVKGRFTISRDNAKNMVYLQMVNLRPEDTAVYSCAVGIRPTDAPWAASLRGQGTQVTVSS",
    "Kd": "< 1 pM"
  },
  {
    "Binder": "huBH56-5-IgG (antibody, V domains shown, Humanized VHH-Fc heavy-chain antibody) VH: EVQVVESGGGLIQPGGSLRLSCAASGFTFAPSAMSWARQPPGKEVEWVSGIYGDGRTTYADSVKGRFTISRDNSKNTVYLQMNSLRAEDTAVYICVVGIRLLSESWAQALRGQGTQVTVSS",
    "Kd": "< 1 pM"
  },
  {
    "Binder": "BH56-IgG (antibody, V domains shown, also called anti-human BCMA chimeric antibody) VH: EVQVVESGGGLVQAGESLTLSCAASGFTFAPSAMSWARQPPGKEVEWVSGIYGDGRTTYADSVKGRFTISRDNAKKTVTLQMNNLEPEDSGNYICVVGIRLLSESWAQALRGQGTQVTVSS",
    "Kd": "< 1 pM"
  }
]
